B1: ZNF649 (parent)
chain: MTKAQESLTLEDVAVDFTWEEWQF

# Variants of: B1
# assay.name: protein stability index of a GFP-peptide fusion (GPS, HEK-293T) (PSI 1-6); higher = more stable;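 note: lentivirally expressed fusions sorted by FACS into six bins by GFP to DsRed ratio, PSI derived from sequencing read proportions per bin multiplied by bin number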
# condition.description: c terminus: a fixed tail appended
For each entry below, report its protein stability index value.
Write no unit; give the number alone.

Notebook: KTKAQESLTLEDVAVDFTWEEWQF [M1K] , protein stability index read as 3.29

Notebook: MTKAQESGTLEDVAVDFTWEEWQF [L8G] , protein stability index read as 4.11

Notebook: MTKAQESLTLEDVAVDFTWEEWQR [F24R] , protein stability index read as 4.34

Notebook: MTKAQESLTLECVAVDFTWEEWQF [D12C] , protein stability index read as 2.65

Notebook: MTKAQESLTLEDVAVDFTWEETQF [W22T] , protein stability index read as 4.28

Notebook: MTKAFESLTLEDVAVDFTWEEWQF [Q5F] , protein stability index read as 3.12

Notebook: MTWAQESLTLEDVAVDFTWEEWQF [K3W] , protein stability index read as 2.53

Notebook: MTKAQMSLTLEDVAVDFTWEEWQF [E6M] , protein stability index read as 1.92

Notebook: MTKAQESLTLEDVAVDVTWEEWQF [F17V] , protein stability index read as 4.05

Notebook: MTKAQESLTLEDVAVDFTWEEGQF [W22G] , protein stability index read as 4.33

Notebook: MTKAQESLTLEQVAVDFTWEEWQF [D12Q] , protein stability index read as 2.84

Notebook: MTKAQESPTLEDVAVDFTWEEWQF [L8P] , protein stability index read as 3.58

Notebook: MTKAQESLTLEDVAVDFTWYEWQF [E20Y] , protein stability index read as 2

Notebook: MTKAQESLTLEDVNVDFTWEEWQF [A14N] , protein stability index read as 2.92

Notebook: MTMAQESLTLEDVAVDFTWEEWQF [K3M] , protein stability index read as 2.64

Notebook: MTKAQEMLTLEDVAVDFTWEEWQF [S7M] , protein stability index read as 2.69

Notebook: MTKAQESLTLEDVAVDFTWEEWQW [F24W] , protein stability index read as 2.88

Notebook: MTKAQESLTLQDVAVDFTWEEWQF [E11Q] , protein stability index read as 3.9

Notebook: MTKAQESLTLEPVAVDFTWEEWQF [D12P] , protein stability index read as 3.05

Notebook: MTKAQESLTIEDVAVDFTWEEWQF [L10I] , protein stability index read as 2.81

Notebook: MTKAQESLTLEDVAVDFTWPEWQF [E20P] , protein stability index read as 2.76

Notebook: MTKAQESMTLEDVAVDFTWEEWQF [L8M] , protein stability index read as 3.62

Notebook: MTKAQESLTLEDNAVDFTWEEWQF [V13N] , protein stability index read as 4.33

Notebook: MTKAQESLTLEDVAVDFTWFEWQF [E20F] , protein stability index read as 1.44

Notebook: MTKAQESLTLEDVAVDFTWEHWQF [E21H] , protein stability index read as 1.53

Notebook: MTKAQEDLTLEDVAVDFTWEEWQF [S7D] , protein stability index read as 3.75

Notebook: MTKAQESLTLEDVAVDHTWEEWQF [F17H] , protein stability index read as 3.94

Notebook: MTKAQESLTLEDVAVDFTWEQWQF [E21Q] , protein stability index read as 3.08

Notebook: MTKAQESLTLEDVAVDFTWTEWQF [E20T] , protein stability index read as 2.5

Notebook: MTKAQESLTLEDMAVDFTWEEWQF [V13M] , protein stability index read as 3.54

Notebook: MTKAQESLTLLDVAVDFTWEEWQF [E11L] , protein stability index read as 1.56

Notebook: MTKAQESLTLEDVAVDFDWEEWQF [T18D] , protein stability index read as 4.1

Notebook: MTKAQESLTLEMVAVDFTWEEWQF [D12M] , protein stability index read as 2.14

Notebook: MTKAQESLTLEDVAVIFTWEEWQF [D16I] , protein stability index read as 2.52

Notebook: MTKAQESLTLEDVAVDFTIEEWQF [W19I] , protein stability index read as 2.56

Notebook: MTKAQESLTLEDVAVDFTWLEWQF [E20L] , protein stability index read as 1.3

Notebook: MTKAKESLTLEDVAVDFTWEEWQF [Q5K] , protein stability index read as 2.83

Notebook: MTKAQENLTLEDVAVDFTWEEWQF [S7N] , protein stability index read as 3.39

Notebook: MTKAQESLTLEDCAVDFTWEEWQF [V13C] , protein stability index read as 3.37

Notebook: MTKAQESLTLEDAAVDFTWEEWQF [V13A] , protein stability index read as 3.98

Notebook: MTKAQEELTLEDVAVDFTWEEWQF [S7E] , protein stability index read as 3.93

Notebook: MTKAQESLTSEDVAVDFTWEEWQF [L10S] , protein stability index read as 4.07

Notebook: MTKAQESLTLEDVAVDFTWEPWQF [E21P] , protein stability index read as 1.89

Notebook: STKAQESLTLEDVAVDFTWEEWQF [M1S] , protein stability index read as 3.91

Notebook: MTKAQESLTFEDVAVDFTWEEWQF [L10F] , protein stability index read as 3.61

Notebook: MTKAQESLTLEDVAVCFTWEEWQF [D16C] , protein stability index read as 2.89

Notebook: MTKAQESLTLEDVAVDFTQEEWQF [W19Q] , protein stability index read as 4.43

Notebook: MHKAQESLTLEDVAVDFTWEEWQF [T2H] , protein stability index read as 2.88

Notebook: MTKAQESLTLEDVAHDFTWEEWQF [V15H] , protein stability index read as 4.33

Notebook: MTKAQESLTLEDVADDFTWEEWQF [V15D] , protein stability index read as 3.77

Notebook: MTKAQESLTLEDVYVDFTWEEWQF [A14Y] , protein stability index read as 1.65

Notebook: MSKAQESLTLEDVAVDFTWEEWQF [T2S] , protein stability index read as 2.55

Notebook: MTKAQESLTPEDVAVDFTWEEWQF [L10P] , protein stability index read as 4.11

Notebook: MTKAQEALTLEDVAVDFTWEEWQF [S7A] , protein stability index read as 2.82

Notebook: MTKAQESLTLEDVAVDFTWEEWYF [Q23Y] , protein stability index read as 2.38

Notebook: MTKAQESLTLEDVAVDFTHEEWQF [W19H] , protein stability index read as 3.6

Notebook: MTKAQESLTLEDHAVDFTWEEWQF [V13H] , protein stability index read as 3.88

Notebook: MTKAQESLTLEDKAVDFTWEEWQF [V13K] , protein stability index read as 4.16

Notebook: MTKAQESLTLEDVAVDKTWEEWQF [F17K] , protein stability index read as 4.72

Notebook: MTKAQESLTLEDVAVDFTWEEWQI [F24I] , protein stability index read as 2.51

Notebook: MTKAQESLTLEDVAVYFTWEEWQF [D16Y] , protein stability index read as 2.64

Notebook: MTKAQESLTLEDVAVDFMWEEWQF [T18M] , protein stability index read as 2.39

Notebook: MTKAQESLTLEDVAVDITWEEWQF [F17I] , protein stability index read as 4.25

Notebook: MTKAQESLALEDVAVDFTWEEWQF [T9A] , protein stability index read as 3.37

Notebook: MTKAQESLELEDVAVDFTWEEWQF [T9E] , protein stability index read as 3.94

Notebook: MWKAQESLTLEDVAVDFTWEEWQF [T2W] , protein stability index read as 2.36

Notebook: MTKAQESLTLEDVDVDFTWEEWQF [A14D] , protein stability index read as 4.04

Notebook: MTKYQESLTLEDVAVDFTWEEWQF [A4Y] , protein stability index read as 2.56

Notebook: MTKAQESLTLEDVAVDFTWEEWMF [Q23M] , protein stability index read as 2.72

Notebook: MTKAQESLTLEDVACDFTWEEWQF [V15C] , protein stability index read as 3.71

Notebook: MTKAQESSTLEDVAVDFTWEEWQF [L8S] , protein stability index read as 4.47

Notebook: MLKAQESLTLEDVAVDFTWEEWQF [T2L] , protein stability index read as 3.97

Notebook: MTKAQESLTLEDVAVDPTWEEWQF [F17P] , protein stability index read as 4.43
